- System: Mycobacterium tuberculosis
- MEASUREMENT_DESCRIPTION: Antimycobacterial activity against Mycobacterium tuberculosis H37Rv transformed with pSMT1 luciferase reporter plasmid assessed as growth inhibition after 6 days by luminometry
- Assay type: functional
MEASURED_PROPERTY: GI90
Number first, unit second: that is the form wanted.

Query: Could you please provide reported GI90 for CCCCCCCn1c(=O)c2c3c(cnc2n(CCCCCCC)c1=O)C(=O)C1=C(C3=O)C2CCC1C2 (centres undefined) ? Thanks!
Reply: 2.45 µg/mL

Query: Supply recorded GI90 for CCCn1c(=O)c2c3c(cnc2n(CCC)c1=O)C(=O)C1=C(C3=O)C2CCC1C2 (centres undefined) here.
Reply: 4.28 µg/mL

Query: Indicate the recorded GI90 value for this compound: CCCCCn1c(=O)c2c3c(cnc2n(CCCCC)c1=O)C(=O)C1=C(C3=O)C2CCC1CC2
Reply: 4.78 µg/mL

Query: Return the recorded GI90 value; entry: CCCCCCCn1c(=O)c2c3c(cnc2n(CCCCCCC)c1=O)C(=O)C1=C(C3=O)C2CCC1CC2
Reply: 3.78 µg/mL

Query: Give the measured GI90 for CC(C)n1c(=O)c2c3c(cnc2n(C(C)C)c1=O)C(=O)C1=C(C3=O)C2CCC1CC2
Reply: 2.32 µg/mL

---
Query: Using known records, supply GI90 for CCCCCn1c(=O)c2c3c(cnc2n(CCCCC)c1=O)C(=O)C1=C(C3=O)C2CCC1C2 (centres undefined)
Reply: 4.09 µg/mL

Query: Give recorded GI90. Cn1c(=O)c2c3c(cnc2n(C)c1=O)C(=O)C1=C(C3=O)C2CCC1C2 (centres undefined)
Reply: 5.87 µg/mL

Query: For the compound CC(C)Cn1c(=O)c2c3c(cnc2n(CC(C)C)c1=O)C(=O)C1=C(C3=O)C2CCC1CC2 , give its measured GI90 value.
Reply: 9.31 µg/mL

Query: Supply recorded GI90 for CC(C)CCn1c(=O)c2c3c(cnc2n(CCC(C)C)c1=O)C(=O)C1=C(C3=O)C2CCC1CC2 here.
Reply: 10.33 µg/mL

---

# GI50 per entry
- Tested on: Mycobacterium tuberculosis
- MEASUREMENT_DESCRIPTION: Antimycobacterial activity against Mycobacterium tuberculosis H37Rv transformed with pSMT1 luciferase reporter plasmid assessed as growth inhibition after 6 days by luminometry
- Type: functional
- EXPERIMENTAL_CONTEXT: Mycobacterium tuberculosis, H37Rv, 144 h
I only need the number, in µg/mL, no unit after it.

Query: Quote GI50 reported for CCCCCCCn1c(=O)c2c3c(cnc2n(CCCCCCC)c1=O)C(=O)C1=C(C3=O)C2CCC1CC2 please.
Reply: 1.32

Query: Provide one value: measured GI50 of CC(C)n1c(=O)c2c3c(cnc2n(C(C)C)c1=O)C(=O)C1=C(C3=O)C2CCC1CC2
Reply: 0.73

Query: Tell us which GI50 value is on record for CC(C)CCn1c(=O)c2c3c(cnc2n(CCC(C)C)c1=O)C(=O)C1=C(C3=O)C2CCC1C2 (stereo not given)
Reply: 2.41

Query: Read the entry CCCCCCCn1c(=O)c2c3c(cnc2n(CCCCCCC)c1=O)C(=O)C1=C(C3=O)C2CCC1C2 (stereo not given) and write its reported GI50.
Reply: 0.63

Query: Identify GI50 associated with the compound CCCn1c(=O)c2c3c(cnc2n(CCC)c1=O)C(=O)C1=C(C3=O)C2CCC1C2 (stereo not given)
Reply: 1.73

---

- Tested on: Mycobacterium tuberculosis
- MEASUREMENT_DESCRIPTION: Antimycobacterial activity against Mycobacterium tuberculosis H37Rv transformed with pSMT1 luciferase reporter plasmid assessed as growth inhibition after 6 days by luminometry
- Type: functional
- EXPERIMENTAL_CONTEXT: Mycobacterium tuberculosis, H37Rv, 144 h
As shown below, each of these compounds has a reported GI50 value.
Give the quantity in µg/mL, number only.

Observe how each entry below is paired with its result.
Query: Answer with reported GI50 of CCCCCCn1c(=O)c2c3c(cnc2n(CCCCCC)c1=O)C(=O)C1=C(C3=O)C2CCC1C2 (stereo not given)
Reply: 1.22

Query: Look up and report measured GI50 for this entry: Cn1c(=O)c2c3c(cnc2n(C)c1=O)C(=O)C1=C(C3=O)C2CCC1CC2
Reply: 2.83

Query: Determine from records and report GI50 for CC(C)CCn1c(=O)c2c3c(cnc2n(CCC(C)C)c1=O)C(=O)C1=C(C3=O)C2CCC1CC2
Reply: 4.9

Query: Please give measured GI50 of the following entry: CC(C)Cn1c(=O)c2c3c(cnc2n(CC(C)C)c1=O)C(=O)C1=C(C3=O)C2CCC1C2 (stereo not given)
Reply: 2.08

Query: Query GI50 for CC(C)n1c(=O)c2c3c(cnc2n(C(C)C)c1=O)C(=O)C1=C(C3=O)C2CCC1C2 (stereo not given)
Reply: 0.52

Query: Please list GI50 recorded for the compound NNC(=O)c1ccncc1 [ISONIAZID]
Reply: 0.01

Query: Let me know recorded GI50 for CCCCCn1c(=O)c2c3c(cnc2n(CCCCC)c1=O)C(=O)C1=C(C3=O)C2CCC1C2 (stereo not given) , thanks.
Reply: 1.26

Query: Check the records and state GI50 for CC(C)C1CCc2ncc3c(c2C1=O)C(=O)C1=C(C3=O)C2CCC1C2 (stereo not given)
Reply: 20.4

New cases:
Query: Identify measured GI50 associated with CCCCCCn1c(=O)c2c3c(cnc2n(CCCCCC)c1=O)C(=O)C1=C(C3=O)C2CCC1CC2
Reply: 1.36

Query: Answer with the recorded GI50 for the compound listed here: CC(C)C1CCC(=O)c2c1ncc1c2C(=O)C2=C(C1=O)C1CCC2C1 (stereo not given)
Reply: 5.55
